Form field: % Kill, T47D cells (one value per entry).
TARGET_OR_SYSTEM: T1, human prolactin receptor (PRLR) (human, UniProt P16471 25-622)
T1 sequence: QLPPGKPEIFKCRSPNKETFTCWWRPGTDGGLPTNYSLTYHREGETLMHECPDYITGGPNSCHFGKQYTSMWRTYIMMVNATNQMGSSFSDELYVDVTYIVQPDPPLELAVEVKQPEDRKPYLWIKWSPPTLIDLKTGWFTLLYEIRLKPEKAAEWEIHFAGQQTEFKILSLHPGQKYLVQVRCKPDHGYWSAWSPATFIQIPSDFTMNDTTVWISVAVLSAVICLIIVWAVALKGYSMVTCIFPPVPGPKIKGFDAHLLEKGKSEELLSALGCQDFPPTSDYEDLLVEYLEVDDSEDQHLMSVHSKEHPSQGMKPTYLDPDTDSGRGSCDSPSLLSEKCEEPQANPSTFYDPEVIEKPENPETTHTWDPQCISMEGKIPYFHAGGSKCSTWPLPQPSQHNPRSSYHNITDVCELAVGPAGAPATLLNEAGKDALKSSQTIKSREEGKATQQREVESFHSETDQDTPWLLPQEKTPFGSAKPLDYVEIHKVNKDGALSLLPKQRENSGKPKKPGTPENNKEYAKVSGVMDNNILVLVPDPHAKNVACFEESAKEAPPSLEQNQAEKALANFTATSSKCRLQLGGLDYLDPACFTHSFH
METHOD_SUMMARY: cell-based or functional assay
Provide the measurement as a number trailed by its unit.

[[record]]
binder = "H1H6975P-mc-VC-PAB-MMD (antibody, human IgG1, V domains shown, MMD conjugated through mc-VC-PAB linker; attachment residues not stated) VH: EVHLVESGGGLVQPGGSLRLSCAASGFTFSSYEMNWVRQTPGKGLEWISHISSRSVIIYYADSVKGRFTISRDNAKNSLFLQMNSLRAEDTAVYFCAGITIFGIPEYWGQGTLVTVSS VL: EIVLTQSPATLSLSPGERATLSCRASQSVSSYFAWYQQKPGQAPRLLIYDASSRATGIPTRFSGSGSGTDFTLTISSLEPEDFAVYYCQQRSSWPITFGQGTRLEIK"
data_value = "90%"


Given the entry H1H6953N-mc-VC-PAB-MMD (antibody, human IgG1, V domains shown, MMD conjugated through mc-VC-PAB linker; attachment residues not stated) VH: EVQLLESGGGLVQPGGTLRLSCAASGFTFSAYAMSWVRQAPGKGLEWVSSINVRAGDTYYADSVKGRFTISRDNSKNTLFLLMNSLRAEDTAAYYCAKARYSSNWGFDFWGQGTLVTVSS VL: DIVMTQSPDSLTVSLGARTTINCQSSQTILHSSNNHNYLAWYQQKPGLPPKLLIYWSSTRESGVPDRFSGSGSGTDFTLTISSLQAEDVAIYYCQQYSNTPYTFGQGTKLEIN , report its measured % Kill, T47D cells.
90%
